- STUDY_SYSTEM: EKC/KEOPS complex subunit TP53RK (Homo sapiens, UniProt Q96S44); note: in the data inactive means no Kd found up to 30 µM
- Sequence (Q96S44 whole entry): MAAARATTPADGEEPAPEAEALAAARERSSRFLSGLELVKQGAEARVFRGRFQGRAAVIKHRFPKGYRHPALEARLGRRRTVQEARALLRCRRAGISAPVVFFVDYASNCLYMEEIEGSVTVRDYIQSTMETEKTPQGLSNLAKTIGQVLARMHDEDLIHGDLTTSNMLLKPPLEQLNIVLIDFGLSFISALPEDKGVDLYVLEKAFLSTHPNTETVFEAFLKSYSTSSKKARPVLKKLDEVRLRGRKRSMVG
The source made the active and inactive calls.
Classes used: active, inactive

>  <COMPOUND>
C[C@@H]1CN(Cc2ccc(F)cc2)[C@@H](C)CN1C(=O)c1cc2c(C(=O)C(=O)N(C)C)cn(C)c2cc1Cl

>  <STUDY_SYSTEM>
EKC/KEOPS complex subunit TP53RK (Homo sapiens, UniProt Q96S44); note: in the data inactive means no Kd found up to 30 µM

>  <CATEGORY_LABEL>
inactive

$$$$
>  <COMPOUND>
Cc1cn(-c2cc(NC(=O)c3ccc(C)c(Nc4nccc(-c5cccnc5)n4)c3)cc(C(F)(F)F)c2)cn1

>  <STUDY_SYSTEM>
EKC/KEOPS complex subunit TP53RK (Homo sapiens, UniProt Q96S44); note: in the data inactive means no Kd found up to 30 µM

>  <CATEGORY_LABEL>
inactive

$$$$
>  <COMPOUND>
COc1cc(CCc2cc(NC(=O)c3ccc(N4C[C@@H](C)N[C@@H](C)C4)cc3)n[nH]2)cc(OC)c1

>  <STUDY_SYSTEM>
EKC/KEOPS complex subunit TP53RK (Homo sapiens, UniProt Q96S44); note: in the data inactive means no Kd found up to 30 µM

>  <CATEGORY_LABEL>
inactive

$$$$
>  <COMPOUND>
Cc1cc(Nc2cc(N3CCN(C)CC3)nc(/C=C/c3ccccc3)n2)n[nH]1

>  <STUDY_SYSTEM>
EKC/KEOPS complex subunit TP53RK (Homo sapiens, UniProt Q96S44); note: in the data inactive means no Kd found up to 30 µM

>  <CATEGORY_LABEL>
inactive

$$$$
>  <COMPOUND>
O=C(Nc1cccc(Cl)c1)Nc1ncc(CCNc2ncnc3ccsc23)s1

>  <STUDY_SYSTEM>
EKC/KEOPS complex subunit TP53RK (Homo sapiens, UniProt Q96S44); note: in the data inactive means no Kd found up to 30 µM

>  <CATEGORY_LABEL>
inactive

$$$$
>  <COMPOUND>
CN(C)C(=O)c1cc2cnc(Nc3ccc(N4CCNCC4)cn3)nc2n1C1CCCC1

>  <STUDY_SYSTEM>
EKC/KEOPS complex subunit TP53RK (Homo sapiens, UniProt Q96S44); note: in the data inactive means no Kd found up to 30 µM

>  <CATEGORY_LABEL>
inactive

$$$$
>  <COMPOUND>
CN1CC[C@@H](c2c(O)cc(O)c3c(=O)cc(-c4ccccc4Cl)oc23)[C@@H]1CO

>  <STUDY_SYSTEM>
EKC/KEOPS complex subunit TP53RK (Homo sapiens, UniProt Q96S44); note: in the data inactive means no Kd found up to 30 µM

>  <CATEGORY_LABEL>
inactive

$$$$
>  <COMPOUND>
CCN1CCN(Cc2ccc(-c3cc4c(N[C@H](C)c5ccccc5)ncnc4[nH]3)cc2)CC1

>  <STUDY_SYSTEM>
EKC/KEOPS complex subunit TP53RK (Homo sapiens, UniProt Q96S44); note: in the data inactive means no Kd found up to 30 µM

>  <CATEGORY_LABEL>
inactive

$$$$
>  <COMPOUND>
COC(=O)[C@@]1(O)C[C@H]2O[C@]1(C)n1c3ccccc3c3c4c(c5c6ccccc6n2c5c31)C(=O)NC4 [K-252A]

>  <STUDY_SYSTEM>
EKC/KEOPS complex subunit TP53RK (Homo sapiens, UniProt Q96S44); note: in the data inactive means no Kd found up to 30 µM

>  <CATEGORY_LABEL>
active

$$$$
>  <COMPOUND>
CC(C)Nc1cc(-c2c[nH]c(C(=O)N[C@H](CO)c3cccc(Cl)c3)c2)c(Cl)cn1

>  <STUDY_SYSTEM>
EKC/KEOPS complex subunit TP53RK (Homo sapiens, UniProt Q96S44); note: in the data inactive means no Kd found up to 30 µM

>  <CATEGORY_LABEL>
inactive

$$$$
>  <COMPOUND>
C1=C/COCc2cc(ccc2OCCN2CCCC2)Nc2nccc(n2)-c2cccc(c2)COC/1

>  <STUDY_SYSTEM>
EKC/KEOPS complex subunit TP53RK (Homo sapiens, UniProt Q96S44); note: in the data inactive means no Kd found up to 30 µM

>  <CATEGORY_LABEL>
inactive

$$$$
>  <COMPOUND>
CN1CCN(c2ccc3nc(-c4c(N)c5c(F)cccc5[nH]c4=O)[nH]c3c2)CC1

>  <STUDY_SYSTEM>
EKC/KEOPS complex subunit TP53RK (Homo sapiens, UniProt Q96S44); note: in the data inactive means no Kd found up to 30 µM

>  <CATEGORY_LABEL>
inactive

$$$$
>  <COMPOUND>
CO[C@H]1C[C@@H]2CC[C@@H](C)[C@@](O)(O2)C(=O)C(=O)N2CCCC[C@H]2C(=O)O[C@H]([C@H](C)C[C@@H]2CC[C@@H](OCCO)[C@H](OC)C2)CC(=O)[C@H](C)/C=C(\C)[C@@H](O)[C@@H](OC)C(=O)[C@H](C)C[C@H](C)/C=C/C=C/C=C/1C

>  <STUDY_SYSTEM>
EKC/KEOPS complex subunit TP53RK (Homo sapiens, UniProt Q96S44); note: in the data inactive means no Kd found up to 30 µM

>  <CATEGORY_LABEL>
inactive

$$$$
>  <COMPOUND>
CCS(=O)(=O)N1CC(CC#N)(n2cc(-c3ncnc4[nH]ccc34)cn2)C1

>  <STUDY_SYSTEM>
EKC/KEOPS complex subunit TP53RK (Homo sapiens, UniProt Q96S44); note: in the data inactive means no Kd found up to 30 µM

>  <CATEGORY_LABEL>
inactive

$$$$
>  <COMPOUND>
O=c1sn(-c2cccc3ccccc23)c(=O)n1Cc1ccccc1

>  <STUDY_SYSTEM>
EKC/KEOPS complex subunit TP53RK (Homo sapiens, UniProt Q96S44); note: in the data inactive means no Kd found up to 30 µM

>  <CATEGORY_LABEL>
inactive

$$$$
